Target: recombinant active AMPK (A1/B1/G2) (Homo sapiens, UniProt Q13131+Q9Y478)
Construct: purchased SignalChem (Richmond, BC, Canada)
Sequence (Q13131 whole entry): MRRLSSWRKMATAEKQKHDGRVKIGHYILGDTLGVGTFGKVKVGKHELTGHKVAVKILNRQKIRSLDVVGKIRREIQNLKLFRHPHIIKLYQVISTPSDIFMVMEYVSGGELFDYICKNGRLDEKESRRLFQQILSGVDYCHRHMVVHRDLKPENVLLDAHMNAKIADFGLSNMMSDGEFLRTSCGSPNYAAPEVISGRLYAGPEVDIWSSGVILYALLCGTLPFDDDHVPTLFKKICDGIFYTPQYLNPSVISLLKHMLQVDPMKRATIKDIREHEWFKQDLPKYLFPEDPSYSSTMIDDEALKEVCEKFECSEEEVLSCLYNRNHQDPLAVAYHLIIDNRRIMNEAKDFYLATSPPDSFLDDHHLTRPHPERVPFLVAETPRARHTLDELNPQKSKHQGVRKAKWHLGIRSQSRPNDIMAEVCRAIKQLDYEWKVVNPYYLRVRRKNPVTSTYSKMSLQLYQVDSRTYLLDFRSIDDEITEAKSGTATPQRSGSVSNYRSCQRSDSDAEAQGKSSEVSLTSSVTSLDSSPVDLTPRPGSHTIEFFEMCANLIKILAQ
Sequence (Q9Y478 whole entry): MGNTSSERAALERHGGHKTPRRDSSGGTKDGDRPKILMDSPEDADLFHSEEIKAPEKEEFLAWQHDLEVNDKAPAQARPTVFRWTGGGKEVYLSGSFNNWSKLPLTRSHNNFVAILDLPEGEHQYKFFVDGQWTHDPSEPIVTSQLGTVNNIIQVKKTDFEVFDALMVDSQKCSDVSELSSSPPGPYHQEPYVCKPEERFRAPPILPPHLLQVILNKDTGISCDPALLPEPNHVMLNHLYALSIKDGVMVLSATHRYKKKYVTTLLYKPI
Sequence (Q9UGJ0 whole entry partner): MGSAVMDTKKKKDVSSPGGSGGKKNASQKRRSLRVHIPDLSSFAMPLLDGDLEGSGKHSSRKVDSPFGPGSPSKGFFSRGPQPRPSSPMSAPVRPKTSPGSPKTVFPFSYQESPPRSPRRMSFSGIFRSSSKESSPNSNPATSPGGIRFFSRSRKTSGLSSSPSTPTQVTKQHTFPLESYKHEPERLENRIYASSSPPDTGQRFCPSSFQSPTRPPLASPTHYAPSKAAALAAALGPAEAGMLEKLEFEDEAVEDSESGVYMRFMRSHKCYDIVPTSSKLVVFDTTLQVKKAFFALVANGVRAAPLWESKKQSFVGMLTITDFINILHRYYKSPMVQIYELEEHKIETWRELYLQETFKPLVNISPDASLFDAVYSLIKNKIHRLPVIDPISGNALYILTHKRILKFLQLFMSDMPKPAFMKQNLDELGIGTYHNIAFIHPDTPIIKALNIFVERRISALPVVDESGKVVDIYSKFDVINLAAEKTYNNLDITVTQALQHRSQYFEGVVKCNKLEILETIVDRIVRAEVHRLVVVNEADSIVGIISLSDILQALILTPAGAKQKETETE
Test: in vitro AMPK kinase assay coupled with ADP-Glo assay
Assay type: biochemical
Details: Inhibitors; ADP-Glo, 10 ng AMPK, 50 μM ATP, 50 μM SAMS peptide, 60 min
Protocol: To this end, we performed our primary compound screen with a library of 244 chemicals previously identified as kinase inhibitors. […] We also further characterized reported AMPK activators. An ADP-Glo assay was then performed. The luminescence signal for each well was measured with a PHERAstar FS plate reader (BMG Labtech, Durham, NC). The DMSO concentration was 0.2% for all assay wells. […] The luminescence signal for each well was measured with a PHERAstar FS plate reader. […]
Recorded log10 of IC50 by entry
Could you please treat all values as log10 of IC50 in nM?

// worked examples, log10 of IC50 included
{"Molecule": "CC(=O)O/N=C1/C(=C2/C(=O)Nc3cc(Br)ccc32)Nc2ccccc21", "Numeric Result": 3.04}
{"Molecule": "Cc1cc(Nc2nc(-c3ccccc3)nc3ccccc23)n[nH]1", "Numeric Result": 3.17}
{"Molecule": "CCN(CC)CCNC(=O)c1c(C)[nH]c(/C=C2\\C(=O)Nc3ccc(Cl)cc32)c1C", "Numeric Result": 4.62}
{"Molecule": "COC(=O)[C@@]1(O)C[C@H]2O[C@]1(C)n1c3ccccc3c3c4c(c5c6ccccc6n2c5c31)C(=O)NC4 [K-252a]", "Numeric Result": 1.32}
{"Molecule": "Cn1c2ccccc2c2c3c(c4c5ccccc5n(CCC#N)c4c21)CNC3=O", "Numeric Result": 3.30}

Per the reported recombinant active AMPK (A1/B1/G2) (Homo sapiens, UniProt Q13131+Q9Y478) data, O=C1Nc2ccc3ncsc3c2/C1=C/c1cnc[nH]1 has log10 of IC50 of 1.27

Result for O=C1NC(=O)c2c1c1c3ccccc3n3c1c1c2c2ccccc2n1C1CCC3O1 , tested on recombinant active AMPK (A1/B1/G2) (Homo sapiens, UniProt Q13131+Q9Y478), log10 of IC50: 2.30

# CN(C)S(=O)(=O)c1ccc2c(c1)/C(=C/c1cc3c([nH]1)CCCC3)C(=O)N2 with recombinant active AMPK (A1/B1/G2) (Homo sapiens, UniProt Q13131+Q9Y478): log10 of IC50 is 2.27

Recorded log10 of IC50 for O=C1Nc2ccccc2/C1=C1/Nc2ccccc2/C1=N\OCC(O)CO (centres unmarked) on recombinant active AMPK (A1/B1/G2) (Homo sapiens, UniProt Q13131+Q9Y478) was 1.91

Entry O=C1Nc2ccc(I)cc2/C1=C1/Nc2ccccc2/C1=N\O , recombinant active AMPK (A1/B1/G2) (Homo sapiens, UniProt Q13131+Q9Y478) data, log10 of IC50 value: 2.73

Value (log10 of IC50, recombinant active AMPK (A1/B1/G2) (Homo sapiens, UniProt Q13131+Q9Y478)) for record O=C1NC(=O)c2c1c1c3ccccc3[nH]c1c1[nH]c3ccccc3c21 = 3.73

Hey, recombinant active AMPK (A1/B1/G2) (Homo sapiens, UniProt Q13131+Q9Y478) data for COc1cc(Nc2ncc3ccn(-c4cccc(CCC#N)c4)c3n2)cc(OC)c1OC : log10 of IC50 came out at 1.95

Log: recombinant active AMPK (A1/B1/G2) (Homo sapiens, UniProt Q13131+Q9Y478), molecule CN(C)CCCn1cc(C2=C(c3c[nH]c4ccccc34)C(=O)NC2=O)c2ccccc21 [Bisindolylmaleimide I] , log10 of IC50 = 2.97

Simply: Cn1cc(/C=C2\C(=O)Nc3ccc(S(N)(=O)=O)cc32)c2ccccc21 , recombinant active AMPK (A1/B1/G2) (Homo sapiens, UniProt Q13131+Q9Y478), log10 of IC50 = 2.26

The value of log10 of IC50 recorded for Cc1[nH]c(/C=C2\C(=O)Nc3ccc(S(=O)(=O)N(C)c4cccc(Cl)c4)cc32)c(C)c1C(=O)N1CCN(C)CC1 when tested on recombinant active AMPK (A1/B1/G2) (Homo sapiens, UniProt Q13131+Q9Y478) reads 3.10

Assay recombinant active AMPK (A1/B1/G2) (Homo sapiens, UniProt Q13131+Q9Y478), sample Cn1cc(C2=C(c3cn(CCCSC(=N)N)c4ccccc34)C(=O)NC2=O)c2ccccc21 , log10 of IC50 read: 2.79

recombinant active AMPK (A1/B1/G2) (Homo sapiens, UniProt Q13131+Q9Y478) data for COc1ccc2c(c1)c(C1=C(c3c[nH]c4ccccc34)C(=O)NC1=O)cn2CCCN(C)C ; its log10 of IC50: 3.12
